This collection of values is drawn from patent US20250368745A1.

Target: T1, cynomolgus IL-18BP (cynomolgus monkey)
T1 construct: also called cyno IL-18BP; cyIL-18BP
T1 chain: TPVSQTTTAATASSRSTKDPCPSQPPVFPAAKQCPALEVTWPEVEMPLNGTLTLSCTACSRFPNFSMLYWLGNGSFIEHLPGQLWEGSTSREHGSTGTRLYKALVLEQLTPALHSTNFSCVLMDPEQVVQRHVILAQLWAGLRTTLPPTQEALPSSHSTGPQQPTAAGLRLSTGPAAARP
Experiment: BLI, apparent KD
Please provide measured Kd for the entries that follow.
Report only the number, with the unit nM understood.

In plain terms, SA301a HC-Y100D (antibody, V domains shown) VH: QVQLQESGPGLVKPSQTLSLTCTVSGYSITSDYNSHWIRQPPGKGLEWIGYIHYSGSTNYNPSLKSRVTISRDTSKNQFSLKLSSVTAADTAVYYCARNYGSIDVNYFDYWGQGTLVTVSS VL: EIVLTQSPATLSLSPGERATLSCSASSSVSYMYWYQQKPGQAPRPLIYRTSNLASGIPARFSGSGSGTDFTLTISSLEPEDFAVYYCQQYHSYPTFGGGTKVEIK has a documented Kd of 3.65

In plain terms, SA301a HC-Y100F (antibody, V domains shown) VH: QVQLQESGPGLVKPSQTLSLTCTVSGYSITSDYNSHWIRQPPGKGLEWIGYIHYSGSTNYNPSLKSRVTISRDTSKNQFSLKLSSVTAADTAVYYCARNYGSIFVNYFDYWGQGTLVTVSS VL: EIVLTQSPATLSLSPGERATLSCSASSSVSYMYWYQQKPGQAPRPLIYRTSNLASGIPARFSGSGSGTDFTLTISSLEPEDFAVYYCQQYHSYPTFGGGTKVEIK has a documented Kd of 0.26

In plain terms, SA301a HC-I99V (antibody, name in Kabat numbering, V domains shown, IgG1 kappa) VH: QVQLQESGPGLVKPSQTLSLTCTVSGYSITSDYNSHWIRQPPGKGLEWIGYIHYSGSTNYNPSLKSRVTISRDTSKNQFSLKLSSVTAADTAVYYCARNYGSVYVNYFDYWGQGTLVTVSS VL: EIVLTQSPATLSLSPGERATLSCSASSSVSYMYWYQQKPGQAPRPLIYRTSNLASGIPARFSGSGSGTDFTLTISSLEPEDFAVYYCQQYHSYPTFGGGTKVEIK has a documented Kd of 0.33
